System: HCT-116 colon
test description: NCI-60 one-dose screen, 48 h (100 = growth as untreated, 0 = no growth, -100 = all killed)
measurement setup: 10 µM unless noted
Compounds without any hit were thinned out: in the full panel of roughly 83,000, 20% have a hit.
endpoint label: growth (%)
Please respond with the number in % and leave the unit unwritten.

Take a look at these entries with their results.
Read off the recorded growth for N=c1c2ccccc2nc2n1CCCCC2
109

Provide one value: measured growth of O=C(Nc1ccc(Nc2cc(Nc3ccccc3)ncn2)cc1)Nc1cc(C(F)(F)F)ccc1F
63.7

Please give the documented growth of O=C(CN1CCN(c2cc3c(cc2F)c(=O)c(C(=O)O)cn3C2CC2)CC1)Nc1nc(-c2ccc(Cl)cc2)cs1
13.7

Complete the entry with growth for O=C(Nc1cccc2c1C(=O)c1cccc(Nc3cccc4c3C(=O)c3cccc(NC(=O)c5ccccc5)c3C4=O)c1C2=O)c1ccccc1
109

// Input: CC(=O)C1=C(O)C=C2Oc3c(C(=O)/C=C/c4c(Cl)cccc4Cl)c(O)c(C)c(O)c3[C@]2(C)C1=O . Output its growth only.
-26.8

Identify the reported growth for the following entry. CC#Cc1nc2ccccc2c(=O)[nH]1
41.1

Look up and report measured growth for this entry: O=[N+]([O-])c1cccc(-c2nc3sccn3c2-c2ccnc(NCCNS(=O)(=O)c3ccc(C(F)(F)F)cc3)n2)c1
35.6

Please report the measured growth for O=C1C=CC(Nc2ccccc2[N+](=O)[O-])C1Nc1ccccc1[N+](=O)[O-] (centres undefined)
-89.5

Next compound, please.
For the compound CCCCCC(=O)Oc1ccc(/C(=C(\C)c2ccccc2)c2ccc(OCCN(CC)CC)cc2)cc1 , give its reported growth.
50.7

Source: PubChem BioAssay (NCI)
